# ASSAYED_TARGET: T1, full-length recombinant human PAD4 (human, UniProt Q9UM07 1-663)
# T1 construct: Full-length recombinant; also called peptidylarginine deiminase 4
# T1 sequence (Q9UM07 whole entry): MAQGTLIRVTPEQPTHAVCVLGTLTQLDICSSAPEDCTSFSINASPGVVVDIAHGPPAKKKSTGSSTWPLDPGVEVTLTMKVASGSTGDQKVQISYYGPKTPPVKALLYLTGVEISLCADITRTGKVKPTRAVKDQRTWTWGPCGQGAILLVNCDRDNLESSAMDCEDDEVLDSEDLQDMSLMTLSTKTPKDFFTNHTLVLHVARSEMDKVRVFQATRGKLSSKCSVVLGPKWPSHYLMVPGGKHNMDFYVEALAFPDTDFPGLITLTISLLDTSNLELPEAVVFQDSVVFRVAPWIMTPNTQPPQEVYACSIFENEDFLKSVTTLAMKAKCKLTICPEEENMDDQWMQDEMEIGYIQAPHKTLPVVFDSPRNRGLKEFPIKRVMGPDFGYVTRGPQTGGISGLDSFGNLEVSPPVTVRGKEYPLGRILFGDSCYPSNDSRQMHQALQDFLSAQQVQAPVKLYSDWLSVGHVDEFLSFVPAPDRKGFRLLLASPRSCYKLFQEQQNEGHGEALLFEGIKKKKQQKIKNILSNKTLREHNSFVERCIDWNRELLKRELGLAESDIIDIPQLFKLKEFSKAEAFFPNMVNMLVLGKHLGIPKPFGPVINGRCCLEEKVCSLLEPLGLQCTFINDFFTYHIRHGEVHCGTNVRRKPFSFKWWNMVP
# EXPERIMENT_NOTES: ELISA, immobilized human PAD4
TEST_READOUT: O.D. 490/630 at 1 µg/mL
Form: value (number only, do not type unit).

// query What value of O.D. 490/630 at 1 µg/mL has been recorded for this entry: humanized anti-PAD4 antibody derived from G8, VH H4.32 / VL L4.06 (antibody, IgG1, V domains shown, IgG1 kappa; also called G8 H4.32/L4.06) VH: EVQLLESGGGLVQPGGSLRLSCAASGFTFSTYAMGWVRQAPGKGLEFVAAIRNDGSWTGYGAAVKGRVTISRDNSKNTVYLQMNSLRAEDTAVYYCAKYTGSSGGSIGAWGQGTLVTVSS VL: SYELTQPPSVSVSPGQTARITCSGGNRNYYYGWYQQKPGQAPVTVIYANDKRPSGIPERFSGSYSGNTTTLTISGVQAEDEADYYCGTADTGKYVFGGGTKLTVLG
// result 1.79

// query Item humanized anti-PAD4 antibody derived from H7, VH H4.15 / VL L4.00 (antibody, IgG1, V domains shown, IgG1 kappa; also called H7 H4.15/L4.00) VH: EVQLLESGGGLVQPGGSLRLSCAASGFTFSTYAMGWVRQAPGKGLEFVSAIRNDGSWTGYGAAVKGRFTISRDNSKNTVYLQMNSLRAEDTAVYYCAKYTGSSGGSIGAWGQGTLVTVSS VL: SYELTQPPSVSVSPGQTARITCSGGSGRYYYGWYQQKPGQAPVLVIYSSTHRPSGIPERFSGSSSGTTVTLTISGVQAEDEADYYCGTADSSSYVFGGGTKLTVLG has what recorded O.D. 490/630 at 1 µg/mL?
// result 1.86

// query Can you share its O.D. 490/630 at 1 µg/mL? I mean this binder: humanized anti-PAD4 antibody derived from G8, VH H4.15 / VL L4.06 (antibody, human IgG1, kappa, V domains shown, IgG1 kappa; also called G8 H4.15/L4.06) VH: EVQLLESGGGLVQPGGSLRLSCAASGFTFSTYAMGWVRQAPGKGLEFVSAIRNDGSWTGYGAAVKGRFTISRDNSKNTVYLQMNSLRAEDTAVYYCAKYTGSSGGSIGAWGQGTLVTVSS VL: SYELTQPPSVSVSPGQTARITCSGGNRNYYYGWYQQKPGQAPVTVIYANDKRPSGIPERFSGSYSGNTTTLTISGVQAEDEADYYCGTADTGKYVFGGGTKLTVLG
// result 1.77

// query Name the recorded O.D. 490/630 at 1 µg/mL for humanized anti-PAD4 antibody derived from H7, VH H4.32 / VL L4.15 (antibody, IgG1, V domains shown, IgG1 kappa; also called H7 H4.32/L4.15) VH: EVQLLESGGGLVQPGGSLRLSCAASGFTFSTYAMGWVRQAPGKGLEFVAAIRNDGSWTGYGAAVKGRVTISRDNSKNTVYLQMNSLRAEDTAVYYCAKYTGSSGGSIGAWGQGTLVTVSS VL: SYELTQPPSVSVSPGQTARITCSGGSGRYYYGWYQQKPGQAPVTVIYSSTHRPSGIPERFSGSNSGNTTTLTISGVQAEDEADYYCGTADSSSYVFGGGTKLTVLG .
// result 1.79

// query Consider the binder shown here: humanized anti-PAD4 antibody derived from H7, VH H4.15 / VL L4.06 (antibody, IgG1, V domains shown, IgG1 kappa; also called H7 H4.15/L4.06) VH: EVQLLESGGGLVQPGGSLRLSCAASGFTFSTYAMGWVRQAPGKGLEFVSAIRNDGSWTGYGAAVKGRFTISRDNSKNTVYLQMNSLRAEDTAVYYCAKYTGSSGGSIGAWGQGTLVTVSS VL: SYELTQPPSVSVSPGQTARITCSGGSGRYYYGWYQQKPGQAPVTVIYSSTHRPSGIPERFSGSYSGNTTTLTISGVQAEDEADYYCGTADSSSYVFGGGTKLTVLG What is its recorded O.D. 490/630 at 1 µg/mL?
// result 1.84

// query I'd like to know its O.D. 490/630 at 1 µg/mL. The binder in question is humanized anti-PAD4 antibody derived from G8, VH H4.15 / VL L4.29 (antibody, human IgG1, kappa, V domains shown, IgG1 kappa; also called G8 H4.15/L4.29) VH: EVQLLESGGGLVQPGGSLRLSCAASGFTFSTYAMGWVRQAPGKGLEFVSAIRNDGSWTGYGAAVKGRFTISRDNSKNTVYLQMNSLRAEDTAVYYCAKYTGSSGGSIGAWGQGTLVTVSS VL: SYELTQPPSVSVSPGQTARITCSGGNRNYYYGWYQQKPGQAPVTVIYANDKRPSGIPERFSGSNSGSTTTLTISGVQAEDEADYYCGTADTGKYVFGGGTKLTVLG
// result 1.84

// query # query: O.D. 490/630 at 1 µg/mL of entry humanized anti-PAD4 antibody derived from G8, VH H4.15 / VL L4.00 (antibody, human IgG1, kappa, V domains shown, IgG1 kappa; also called G8 H4.15/L4.00) VH: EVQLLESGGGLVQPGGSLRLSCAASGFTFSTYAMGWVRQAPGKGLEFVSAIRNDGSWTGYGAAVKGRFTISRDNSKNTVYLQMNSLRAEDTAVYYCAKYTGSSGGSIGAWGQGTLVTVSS VL: SYELTQPPSVSVSPGQTARITCSGGNRNYYYGWYQQKPGQAPVLVIYANDKRPSGIPERFSGSSSGTTVTLTISGVQAEDEADYYCGTADTGKYVFGGGTKLTVLG
// result 1.85

// query Query (binder): humanized anti-PAD4 antibody derived from G8, VH H4.15 / VL L4.17 (antibody, human IgG1, kappa, V domains shown, IgG1 kappa; also called G8 H4.15/L4.17) VH: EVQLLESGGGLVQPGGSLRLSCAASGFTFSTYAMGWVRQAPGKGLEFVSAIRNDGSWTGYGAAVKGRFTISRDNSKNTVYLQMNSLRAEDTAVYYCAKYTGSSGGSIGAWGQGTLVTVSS VL: SYELTQPPSVSVSPGQTARITCSGGNRNYYYGWYQQKPGQAPVTVIYANDKRPSGIPERFSGSTSGNTTTLTISGVQAEDEADYYCGTADTGKYVFGGGTKLTVLG ; field requested: O.D. 490/630 at 1 µg/mL
// result 1.83

// query Requested read-out: O.D. 490/630 at 1 µg/mL. Entry: humanized anti-PAD4 antibody derived from H7, VH H4.15 / VL L4.15 (antibody, IgG1, V domains shown, IgG1 kappa; also called H7 H4.15/L4.15) VH: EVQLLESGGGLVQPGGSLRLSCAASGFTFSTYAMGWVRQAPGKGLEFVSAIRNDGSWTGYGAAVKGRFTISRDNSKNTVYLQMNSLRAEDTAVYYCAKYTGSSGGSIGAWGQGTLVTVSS VL: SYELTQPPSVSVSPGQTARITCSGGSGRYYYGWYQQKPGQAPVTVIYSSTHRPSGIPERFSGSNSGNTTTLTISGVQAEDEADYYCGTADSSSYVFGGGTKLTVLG
// result 1.82

// query Give its O.D. 490/630 at 1 µg/mL value. Item: humanized anti-PAD4 antibody derived from G8, VH H4.32 / VL L4.29 (antibody, IgG1, V domains shown, IgG1 kappa; also called G8 H4.32/L4.29) VH: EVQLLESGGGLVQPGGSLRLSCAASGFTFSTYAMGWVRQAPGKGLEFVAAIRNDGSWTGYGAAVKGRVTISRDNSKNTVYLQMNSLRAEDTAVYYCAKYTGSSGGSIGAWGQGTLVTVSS VL: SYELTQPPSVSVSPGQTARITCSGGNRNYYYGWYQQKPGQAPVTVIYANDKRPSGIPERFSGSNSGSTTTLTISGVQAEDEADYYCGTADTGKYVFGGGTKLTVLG
// result 1.84
